- tested_on: Cytochrome P450 2C9 (Homo sapiens)
- assay_procedure: Cytochrome panel assay with activity outcomes; further: on the % scale 0 is the no-effect control and ±100 the full control effect
- study_conditions: recombinant CYP, pro-luciferin dealkylation, luminescence, p450-cyp2c9; series mostly up to 57.1 µM
Hit rate of the full screen: of about 16,000 compounds, about 4,000 (25%) were called active. About 26% were inconclusive and are not listed. A selection follows.
measured_attribute: activity, negative = inhibition

Illustrative cases are given below, each with its answer.
{"smiles_input": "O=C(O)CCNc1ncnc2nc[nH]c12", "activity, negative = inhibition": "23.7% [at 11.4 µM] (inactive)"}
{"smiles_input": "COc1cccc(-c2cc(N(C)Cc3ccco3)ncn2)c1", "activity, negative = inhibition": "-6.29% [at 2.29 µM] (inactive)"}
{"smiles_input": "C1CCN(CC[C@@H]2CCCCN2)CC1", "activity, negative = inhibition": "12.5% [at 11.4 µM] (inactive)"}
{"smiles_input": "O=S(=O)(O)c1ccc(N=Nc2ccccc2)cc1", "activity, negative = inhibition": "-1.61% [at 11.4 µM] (inactive)"}
{"smiles_input": "CNc1cc(-c2ccccc2C(F)(F)F)ncn1", "activity, negative = inhibition": "22.5% [at 2.29 µM] (inactive)"}

Batch lookup, activity, negative = inhibition per entry.
1. NNC(=O)CNc1cccc(Br)c1
2. NC(N)=NNC(=O)C(=O)O
3. COc1ccc(CNc2cc(-c3ccccc3CN(C)C)ncn2)c(OC)c1
4. O=C1c2ccccc2-c2ccc(NC(=O)[C@H]3CCCC[C@@H]3C(=O)O)cc21
5. CC(C)NC1(C(N)=O)CCN(Cc2ccccc2)CC1
6. c1cn(-c2ccnc(-c3ccc4c(c3)OCO4)n2)cn1
7. CC1(C)[C@@H]2CC[C@]1(CC(=O)O)[C@H](Cl)C2
8. OC[C@@H]1O[C@@H](N2CCN([C@@H]3O[C@@H](CO)[C@@H](O)[C@H](O)[C@H]3O)CC2)[C@@H](O)[C@H](O)[C@H]1O

Result:
["1.94% [at 11.4 µM] (inactive)", "-4.6% [at 11.4 µM] (inactive)", "4.22% [at 2.29 µM] (inactive)", "-10.8% [at 11.4 µM] (inactive)", "-5.53% [at 11.4 µM] (inactive)", "4.3% [at 2.29 µM] (inactive)", "4.29% [at 11.4 µM] (inactive)", "7.18% [at 11.4 µM] (inactive)"]

Give one value of activity, negative = inhibition per listed compound.
1. c1ccc(CN2CC[C@@H](CNc3ncnc4ccccc34)C2)cc1
2. CN(C)CCCN=c1c2ccccc2n(C)c2[nH]c(=O)n(C)c(=O)c12
3. COc1ccccc1-c1cc(-n2ccnc2)ncn1
4. CC(C)(SCc1ccccc1)[C@H](N)C(=O)O
5. CS(=O)(=O)Nc1cccc(-c2nccc(-n3ccnc3)n2)c1
6. O=C(O)[C@H]1CCCC[C@@H]1C(=O)Nc1nc2ccccc2[nH]1
7. Nc1ncnc2c1ncn2[C@H]1O[C@@H](C(=O)OCCO)[C@@H](O)[C@H]1O
8. COc1cccc(-c2nccc(NCc3cnc(C)cn3)n2)c1

Result:
1. 22.2% [at 11.4 µM] (inactive)
2. -3.97% [at 11.4 µM] (inactive)
3. -8.14% [at 2.29 µM] (inactive)
4. -5.67% [at 11.4 µM] (inactive)
5. -8.16% [at 2.29 µM] (inactive)
6. 2.98% [at 11.4 µM] (inactive)
7. -1.34% [at 11.4 µM] (inactive)
8. -10.6% [at 2.29 µM] (inactive)

Would you mind listing activity, negative = inhibition for each of the following compounds?
1. Cc1ccc(N=Nc2ccc(N)cc2C)c(S(N)(=O)=O)c1
2. CC(=O)NCCNc1cc(-c2ccccc2C)ncn1
3. NC([N-]/N=C/c1ccccn1)=[S]=[Fe].O=S(=O)(O)O
4. Cc1cc2nc([C@H](C)C(=O)c3ccc(Cl)cc3)c(=O)[nH]c2cc1C
5. Cc1c(NC(=O)Nc2c(Cl)cccc2Cl)c(=O)n(-c2ccccc2)n1C
6. CNc1nc(-c2ccccc2CN(C)C)nc2ccccc12
7. CO[C@@H]1COC(=O)C/C=C\[C@H](C)[C@H](OC)COC(=O)[C@H]2CCCN2C(=O)C/C=C\[C@H]1C
8. Cc1cccc(CNc2nc(-c3cccnc3)nc3ccccc23)c1

Result:
1. -8.16% [at 11.4 µM] (inactive)
2. 5.2% [at 2.29 µM] (inactive)
3. -29.5% [at 11.4 µM] (inactive)
4. -26.4% [at 11.4 µM] (inactive)
5. -2.44% [at 11.4 µM] (inactive)
6. 4.11% [at 2.29 µM] (inactive)
7. 13.8% [at 11.4 µM] (inactive)
8. -13% [at 2.29 µM] (inactive)
